Collected folding stability dG values appear next to each entry.
B1: EEHEE_rd4_0647 (parent)
chain: MQVTWGNVTVTFSNPEEAKKYAEKVARKLGGQVELHNGQFRIK

Variants of: B1
Assay: folding stability dG (cDNA display proteolysis); higher = more stable
Settings: PBS, room temperature
State just the number; it will be interpreted in kJ/mol.

E17P: 4.25

**Query** Can you share its folding stability dG? I mean this variant: V10P
**Result** -1.67
